# System: HT29 colon
# Assay Comment: NCI-60 one-dose screen, 48 h
# Conditions Used: 10 µM unless noted
Compounds without any hit were thinned out: in the full panel of roughly 83,000, 20% have a hit. Calls of active or inactive are those of the source. Rule for the calls: active = growth percent below 10; inactive = the rest.
Your answer must be one of the following: yes = active, no = inactive

// below: answered compounds
{"Structure": "c1ccc(-c2nc(N3CCOCC3)c3c4c(sc3n2)CCCCC4)nc1", "Label Class": "no"}
{"Structure": "COc1c2ccccc2c(OC)c2[nH]c(=O)ccc12", "Label Class": "no"}
{"Structure": "COc1ccc(-c2cc(-c3cccnc3)nc3sc4c(=O)n(-c5ccc(C)cc5)cnc4c23)cc1OC", "Label Class": "no"}

# input Recorded test outcome, item C#Cc1nc(Nc2cc(C)[nH]n2)c2ccccc2n1
# output yes

# input Tell me the recorded outcome of this test for Nc1nc(-c2ccc(F)cc2)cc(-c2cnn(-c3ccccc3)n2)n1 .
# output no

# input Test call for this compound, please: CCC(=O)OCc1cccc(OC)c1
# output no
